Target: T1, human vascular endothelial growth factor receptor-2 Fc chimera (KDR-Fc) (human, UniProt P35968 20-764)
T1 construct: range 1-764; also called human VEGFR-2; VEGF-R2-Fc; not shown: human IgG1 Fc
T1 sequence (P35968 20-764 limits assumed, change not shown, form in doubt): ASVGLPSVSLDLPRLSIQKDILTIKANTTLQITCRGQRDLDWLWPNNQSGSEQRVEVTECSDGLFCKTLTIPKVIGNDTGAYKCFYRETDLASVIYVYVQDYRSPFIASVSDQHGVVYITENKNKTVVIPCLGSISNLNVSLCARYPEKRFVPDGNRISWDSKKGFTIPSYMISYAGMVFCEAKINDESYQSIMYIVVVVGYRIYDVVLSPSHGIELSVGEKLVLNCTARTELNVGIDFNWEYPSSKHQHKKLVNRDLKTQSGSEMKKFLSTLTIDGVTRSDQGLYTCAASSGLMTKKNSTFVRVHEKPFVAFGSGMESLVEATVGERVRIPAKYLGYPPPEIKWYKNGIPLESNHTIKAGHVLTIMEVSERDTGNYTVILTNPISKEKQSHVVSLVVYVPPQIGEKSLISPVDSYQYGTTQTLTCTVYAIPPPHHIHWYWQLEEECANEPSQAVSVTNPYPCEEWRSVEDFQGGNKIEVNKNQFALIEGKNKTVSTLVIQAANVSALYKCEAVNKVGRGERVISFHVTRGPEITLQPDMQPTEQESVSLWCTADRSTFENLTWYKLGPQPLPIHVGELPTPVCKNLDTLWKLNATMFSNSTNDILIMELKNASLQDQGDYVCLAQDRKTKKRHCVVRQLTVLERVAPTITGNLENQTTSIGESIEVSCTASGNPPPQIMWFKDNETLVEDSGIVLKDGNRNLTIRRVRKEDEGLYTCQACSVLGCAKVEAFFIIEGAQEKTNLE
Assay: radioactive equilibrium binding, 1 nM KDR-Fc
Overview of reported Binding to 1 nM KDR, % across a group of binders:
The answer is to be given in %; state only the numeric part.

Reference set, count: 4
Record request: Binding to 1 nM KDR, % value, item 3′H11 PR4 (designed binder, Del 1-8) EVVAATPTSLLISWRHPHFPTRYYRITYGETGGNSPVQEFTVPLQPPTATISGLKPGVDYTITGYAVTLAHNGNELLTPISINYRT
39

# repeat for 4′A5 PR4 (designed binder, Del 1-8) EVVAATPTSLLISWRHPHFPTRYYRITYGETGGNSPVQEFTVPLQPPTATISGLKPGVDYTITGYAVTLAQNDHELLTPISINYRT
16

# repeat for 2′Del G11 PR4 (designed binder, Del 1-8) EVVAATPTSLLISWRHPHFPTRYYRITYGETGGNSPVQEFTVPLQPPTATISGLKPGVDYTITGYAVTGGQMNRVLMTPISINYRT
22

# repeat for 1′DelA2 PR4 (designed binder, Del 1-8) EVVAATPTSLLISWRHPHFPTRYYRITYGETGGNSPVQEFTVPLQPPTATISGLKPGVDYTITGYAVTVAQNGHQLFTPISINYRT
23

Turning to the following binder.
Record request: Binding to 1 nM KDR, % value, item 3′F1 PR4 (designed binder, Del 1-8) EVVAATPTSLLISWRHPHFPTRYYRITYGETGGNSPVQEFTVPLQPPTATISGLKPGVDYTITGYAVTVAQDGHFLYTPISINYRT
31
